# key: entry, value: protein stability index
# Test system: Saccharomyces cerevisiae;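 further: PSI is a weighted mean of each variant's read distribution over the sorted stability bins, computed only for variants having over 10 reads in total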
# experiment.summary: protein stability index of tFT-peptide fusion in deletion strain of DAS1 (PSI (0-1 scale)); higher = more stable (slower turnover)
Write the number on its own, no unit after it.

CTSCGYKFRTCN	0.702

QUERY: Which protein stability index reading was recorded for the sequence `CTSCGCKFRTNN` ?
RESULT: 0.694

QUERY: Would you mind doing `PSLAASFWPVVG` as well?
RESULT: 0.706

QUERY: Would you mind doing `MKILRQKMNHQN` as well?
RESULT: 0.66

QUERY: Would you mind doing `PNLAASFWRVVG` as well?
RESULT: 0.694

QUERY: Would you mind doing `LVVVLSCVACIN` as well?
RESULT: 0.0377

QUERY: Would you mind doing `CTSCGYKFRDNN` as well?
RESULT: 0.663

QUERY: Would you mind doing `KKHGKGQKQKIN` as well?
RESULT: 0.707

QUERY: Would you mind doing `QKILRQKMNHQN` as well?
RESULT: 0.678

QUERY: Would you mind doing `FSMRKTFRYWVN` as well?
RESULT: 0.577

QUERY: Would you mind doing `LSLAASFWRVVG` as well?
RESULT: 0.664

QUERY: Would you mind doing `FSMRWTFRYWCN` as well?
RESULT: 0.516

QUERY: Would you mind doing `LKILWQKMNHQN` as well?
RESULT: 0.67

QUERY: Would you mind doing `FSMRWTFRMWVN` as well?
RESULT: 0.31

QUERY: Would you mind doing `RLIQPYPVQFLN` as well?
RESULT: 0.578

QUERY: Would you mind doing `ARWRVGLWRGAQ` as well?
RESULT: 0.679

QUERY: Would you mind doing `RLIQPLPVQFYN` as well?
RESULT: 0.783
